assay: Plasma protein binding; settings: mouse, plasma
valueType: fraction unbound

1. Cc1c(CN(C)C(=O)/C=C/c2cnc3c(c2)CC(N)C(=O)N3)oc2ccccc12 (racemic) [Debio-1452-NH3] : 0.055

Kindly review the next compound as well.
What the record says about Cc1c(CN(C)C(=O)/C=C/c2cnc3c(c2)CC[C@H](N)C(=O)N3)oc2ccccc12 [(S)-11] : fraction unbound is 0.04

====

test: in vitro; conditions: mouse, plasma, Plasma stability, t1/2, Mouse
valueType: half-life (h)
Answers are plain numbers, in h.

What the record says about Cc1c(CN(C)C(=O)/C=C/c2cnc3c(c2)CC[C@H](N)C(=O)N3)oc2ccccc12 [(S)-11] : half-life is 1.38

====

assay: in vitro; conditions: dog, MDCK-MDR1, MDR1-MDCK Permeability Papp B:A
valueType: Papp

What the record says about Cc1c(CN(C)C(=O)/C=C/c2cnc3c(c2)CC[C@H](N)C(=O)N3)oc2ccccc12 [(S)-11] : Papp is 5.7 ×10⁻⁶ cm/s

====

Assign MIC A. baumannii AR 0299 to each entry below.
system: A. baumannii AR 0299; experiment: microbe, parasite or virus in culture; assay type: cell-based; conditions: clinical isolate
Numbers only, in µg/mL.

Examples with their reported MIC A. baumannii AR 0299 follow.
1. Cc1c(CN(C)C(=O)/C=C/c2cnc3c(c2)CC(CCNC(=O)OC(C)(C)C)C(=O)N3)oc2ccccc12 (stereo not shown) : 8
2. Cc1c(CN(C)C(=O)/C=C/c2cnc3c(c2)CCC(N)C(=O)N3)oc2ccccc12 (racemic) [(±)-11] : 4
3. Cc1c(CN(C)C(=O)/C=C/c2cnc3c(c2)CCC(CN)C(=O)N3)oc2ccccc12 (stereo not shown) : 32
4. Cc1c(CN(C)C(=O)/C=C/c2cnc3c(c2)CC2(CNC2)C(=O)N3)oc2ccccc12 [Compound 5] : 16
5. Cc1c(CN(C)C(=O)/C=C/c2ccc3c(c2)CCC(N)C(=O)N3)oc2ccccc12 (single isomer, unassigned) [Isomer 2] : 2
6. Cc1c(CN(C)C(=O)C=Cc2cnc3c(c2)CC2(CC(N)C2)C(=O)N3)oc2ccccc12 (mixture of isomers) [(±)-6] : 16

Dear colleague, could you send me MIC A. baumannii AR 0299 for each of the items below? Thanks.
1. Cc1c(CN(C)C(=O)/C=C/c2cnc3c(c2)CCC(CN)C(=O)N3)oc2ccccc12 (racemic) [(±)-12]
2. Cc1c(CN(C)C(=O)/C=C/c2cnc3c(c2)CC2(CNC2)C(=O)N3)oc2ccccc12 [drawing 106]

Result:
1. 32
2. 16

====

system: A. baumannii AR 0033; assay: microbe, parasite or virus in culture; assay type: cell-based; conditions: clinical isolate
valueType: MIC A. baumannii AR 0033 (mg/L)
One number for each entry, in mg/L.

1. Cc1c(CN(C)C(=O)/C=C/c2cnc3c(c2)CCC(CN)C(=O)N3)oc2ccccc12 (racemic) [(±)-12] : 16

Dear colleague, could you send me MIC A. baumannii AR 0033 for each of the items below? Thanks.
1. Cc1c(CN(C)C(=O)/C=C/c2cnc3c(c2)CC(CCNC(=O)OC(C)(C)C)C(=O)N3)oc2ccccc12 (stereo not shown) [Compound 10]
2. Cc1c(CN(C)C(=O)/C=C/c2cnc3c(c2)CCC(CN)C(=O)N3)oc2ccccc12 (stereo not shown)

Result:
1. 16
2. 16

The origin of these recorded values is patent US20240190872A1.
